target: FGFR1 (UniProt P11362); experiment: phosphorylation enrichment, bacterial display (enrichment ratio); higher = better substrate or ligand; peptides without Tyr show the background;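 also: 11-residue human phosphosite peptides and single-mutation variants displayed on the E. coli surface, counted by deep sequencing, each peptide's frequency after selection divided by its frequency in the unselected input library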;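 also: frequency after pTyr selection over input frequency; kinase dosed for 20-30% of maximal phosphorylation in three min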
Sequence (P11362 whole entry, looked up): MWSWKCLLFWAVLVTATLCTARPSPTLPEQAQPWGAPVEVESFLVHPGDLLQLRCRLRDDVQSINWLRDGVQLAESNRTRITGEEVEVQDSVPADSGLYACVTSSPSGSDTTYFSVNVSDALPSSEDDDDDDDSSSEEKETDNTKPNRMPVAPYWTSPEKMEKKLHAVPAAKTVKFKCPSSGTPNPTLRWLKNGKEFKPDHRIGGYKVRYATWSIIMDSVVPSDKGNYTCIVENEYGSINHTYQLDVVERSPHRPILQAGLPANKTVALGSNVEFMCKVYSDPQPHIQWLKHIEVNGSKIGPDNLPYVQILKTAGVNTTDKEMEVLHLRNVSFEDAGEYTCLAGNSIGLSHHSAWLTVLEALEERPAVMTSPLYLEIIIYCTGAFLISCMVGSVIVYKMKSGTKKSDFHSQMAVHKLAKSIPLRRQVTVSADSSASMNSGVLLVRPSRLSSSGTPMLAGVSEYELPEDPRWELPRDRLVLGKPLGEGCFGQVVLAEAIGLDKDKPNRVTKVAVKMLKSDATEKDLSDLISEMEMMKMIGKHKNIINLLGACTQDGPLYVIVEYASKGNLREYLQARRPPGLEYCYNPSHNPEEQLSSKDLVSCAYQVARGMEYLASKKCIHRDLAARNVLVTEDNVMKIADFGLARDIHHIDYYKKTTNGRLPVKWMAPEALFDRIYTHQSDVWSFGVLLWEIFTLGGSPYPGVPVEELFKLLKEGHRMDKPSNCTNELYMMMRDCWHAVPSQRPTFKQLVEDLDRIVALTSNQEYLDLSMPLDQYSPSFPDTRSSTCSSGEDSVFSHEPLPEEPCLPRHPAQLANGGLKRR

# seq text, phosphorylation enrichment
records = [
    ("KKCTRYIDCDR [ASPA_Y64_L69R]", 0.417),
    ("LGIDRYHAIVF [NPSR1_Y147_S143G_YF]", 1.55),
    ("ADKSVYLMGLN [MYH7_Y386_A385V]", 0.444),
    ("LSSLAYSGKDA [FXN_Y205]", 0.66),
    ("NCLRVYVAGRF [CRB1_Y711_E710V]", 0.447),
    ("FTFDPYSEEDP [IL2RB_Y387_YF]", 0.61),
    ("VIKDKYPKARY [APTX_Y209]", 0.44),
    ("VEEDTYTMPST [PTK2_Y407_D402V]", 0.697),
    ("PSQRRYVFFFS [PTEN_Y174_YF]", 0.731),
    ("NHYKIYNPCAE [PTEN_Y68_L70P]", 0.485),
    ("GFRVCYTPDSR [PTPRF_Y451_Y450C_YF]", 0.472),
    ("FETDFYQKGGK [INSR_Y1190_R1191Q_YF]", 0.411),
    ("PGAPAYCVLME [MYO5A_Y1245_R1246C]", 1.58),
    ("DRLASYLDKLR [KRT12_Y139_V143L]", 0.458),
    ("KLVQLYGVCTK [BTK_Y461]", 0.439),
    ("ETEMLYGSAPR [PRC1_Y464]", 0.474),
    ("MCDKEYYSVHN [MET_Y1234_Y1230C]", 5.1),
    ("FLNSIYKCRDE [ROS1_Y2227_S2229C]", 0.579),
    ("VPLLEYYRDIF [CDAN1_Y712]", 3.63),
    ("SSMNDYNPLEK [MYOC_Y479_I477N]", 0.456),
    ("GLSSAYGDLTS [KRT8_Y427_G429D]", 0.506),
    ("EREFKYGAHKF [OAT_Y50_N54K_YF]", 0.424),
    ("ARSHIYTFSSC [MEFV_Y741_A744S]", 0.547),
    ("KVDKECEVRVR [GHR_Y226_Y226C]", 0.502),
    ("IGEGTYGVVYK [CDK2_Y15]", 0.551),
    ("AGIKAYQSCLQ [ADGRA2_Y377_T375K]", 0.453),
    ("DDFDLYGGEKF [PTPN11_Y66_Y62D_YF]", 0.585),
    ("EEVPLYESATT [DCC_Y809_G805E]", 0.487),
    ("HYEDGYPGGSD [CTNND1_Y221]", 0.819),
]

---

target: Fes (UniProt P07332); test: phosphorylation enrichment, bacterial display (enrichment ratio); higher = better substrate or ligand; peptides without Tyr show the background
Sequence (P07332 whole entry, looked up): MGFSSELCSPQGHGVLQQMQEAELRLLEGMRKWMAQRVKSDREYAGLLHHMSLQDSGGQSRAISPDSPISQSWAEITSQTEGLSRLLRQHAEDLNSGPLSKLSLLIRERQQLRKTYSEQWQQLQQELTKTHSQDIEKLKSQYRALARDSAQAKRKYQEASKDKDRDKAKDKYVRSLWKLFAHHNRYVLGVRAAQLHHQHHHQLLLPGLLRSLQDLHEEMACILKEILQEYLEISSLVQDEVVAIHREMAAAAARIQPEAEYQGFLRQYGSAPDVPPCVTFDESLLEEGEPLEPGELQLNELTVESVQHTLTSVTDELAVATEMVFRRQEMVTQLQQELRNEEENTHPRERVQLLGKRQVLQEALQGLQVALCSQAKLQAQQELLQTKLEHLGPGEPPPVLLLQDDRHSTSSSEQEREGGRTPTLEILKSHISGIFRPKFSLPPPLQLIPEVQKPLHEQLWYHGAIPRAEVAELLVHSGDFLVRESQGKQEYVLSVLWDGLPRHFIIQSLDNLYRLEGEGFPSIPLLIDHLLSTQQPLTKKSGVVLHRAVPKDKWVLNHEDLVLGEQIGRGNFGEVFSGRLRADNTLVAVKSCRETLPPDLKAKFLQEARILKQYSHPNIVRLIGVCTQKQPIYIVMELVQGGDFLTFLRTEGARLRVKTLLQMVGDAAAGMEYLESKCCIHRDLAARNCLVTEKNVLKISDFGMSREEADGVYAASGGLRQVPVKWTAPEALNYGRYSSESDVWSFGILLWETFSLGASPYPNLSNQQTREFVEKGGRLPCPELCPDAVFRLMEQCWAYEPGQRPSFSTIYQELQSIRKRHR
Use Satisfied when the recorded phosphorylation enrichment is no lower than 0.7; use Not satisfied when it is lower.

# seq text, qualitative label
records = [
    ("REGAKYVSHDA [ASS1_Y113_G117D]", "Satisfied"),
    ("EREFKYGAHKF [OAT_Y50_N54K_YF]", "Satisfied"),
    ("IHTDAYVRAMT [RPE65_Y89_R85H]", "Not satisfied"),
    ("GVPLGYPIKAP [ELN_Y206]", "Not satisfied"),
    ("IGHHAYGDQFR [IDH1_Y135_R132H_YF]", "Not satisfied"),
    ("LGIDRYHAIVF [NPSR1_Y147_S143G_YF]", "Satisfied"),
    ("KLIMECLPFGS [JAK2_Y931_Y931C_YF]", "Satisfied"),
    ("CGPLLYGLVHQ [PRKCG_Y122_S119P]", "Satisfied"),
    ("FDEFRYRSVIK [CFTR_Y517_YF]", "Satisfied"),
    ("VEDHDYEGGIG [TKT_Y564_Y563D]", "Satisfied"),
    ("KILGRYYETSS [PAX2_Y72_G76S]", "Not satisfied"),
    ("YFRDGHMPRQY [GSS_Y270_Y270H]", "Not satisfied"),
    ("VEEDTYTMPST [PTK2_Y407_D402V]", "Satisfied"),
    ("FFCRWYRNQKS [EREG_Y144_R147Q_YF]", "Not satisfied"),
    ("ALTRSYIREKV [CYP2C8_Y243]", "Not satisfied"),
    ("TDKLFYIFTSG [SLC27A4_Y243_YF]", "Satisfied"),
    ("TVFSDYLHPQF [CCPG1_Y569_YF]", "Satisfied"),
    ("RRNEEYCLLAS [ITK_Y198_D202A]", "Satisfied"),
    ("EAAFVYAISSA [WNT4_Y113]", "Satisfied"),
    ("LREKVYVSLEA [RXRA_Y397_A398V]", "Satisfied"),
    ("GHLFAYDWIRI [BEST1_Y227_S231R_YF]", "Satisfied"),
    ("LLSISYVGCSL [ADGRD1_Y571_S567L]", "Satisfied"),
    ("INSLKYAYNIS [EIF2B5_Y583]", "Satisfied"),
    ("AEVDTYCRHNF [HLA-DRB1_Y107_A103E_YF]", "Satisfied"),
    ("ENRKYYKDLKE [PURA_Y156_M157K]", "Satisfied"),
    ("RRVLVYRGRGA [QDPR_Y16_G17R]", "Satisfied"),
    ("GVFSRHFTTFD [CLCA1_Y661_Y661H_YF]", "Satisfied"),
]

---

biological target: FGFR3 (UniProt P22607); assay: phosphorylation enrichment, bacterial display (enrichment ratio); higher = better substrate or ligand; peptides without Tyr show the background
Sequence (P22607 whole entry, looked up): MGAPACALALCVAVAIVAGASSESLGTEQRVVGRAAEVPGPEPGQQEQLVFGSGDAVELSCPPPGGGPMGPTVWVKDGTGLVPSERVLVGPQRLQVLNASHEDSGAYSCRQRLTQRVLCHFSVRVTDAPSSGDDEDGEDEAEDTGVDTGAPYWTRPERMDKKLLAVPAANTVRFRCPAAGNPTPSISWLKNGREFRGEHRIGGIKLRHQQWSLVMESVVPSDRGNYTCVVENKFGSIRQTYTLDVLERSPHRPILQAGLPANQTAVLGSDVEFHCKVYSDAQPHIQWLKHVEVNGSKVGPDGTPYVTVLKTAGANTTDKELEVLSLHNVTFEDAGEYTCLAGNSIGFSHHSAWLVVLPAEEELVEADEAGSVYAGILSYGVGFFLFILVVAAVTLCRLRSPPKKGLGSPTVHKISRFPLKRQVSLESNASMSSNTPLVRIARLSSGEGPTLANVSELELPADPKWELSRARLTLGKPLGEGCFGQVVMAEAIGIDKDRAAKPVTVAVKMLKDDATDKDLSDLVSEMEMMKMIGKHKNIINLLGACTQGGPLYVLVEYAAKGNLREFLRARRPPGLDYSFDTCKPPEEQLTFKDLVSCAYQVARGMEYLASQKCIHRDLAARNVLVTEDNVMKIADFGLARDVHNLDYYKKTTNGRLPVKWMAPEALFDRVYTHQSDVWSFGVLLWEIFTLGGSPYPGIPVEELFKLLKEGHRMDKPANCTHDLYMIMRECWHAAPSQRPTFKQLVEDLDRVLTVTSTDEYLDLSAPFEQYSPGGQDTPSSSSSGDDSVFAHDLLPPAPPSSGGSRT
# cutoff 0.9 applies to phosphorylation enrichment; >= gives Met, < gives Not met

# seq text, qualitative label
measured = [
    ("PSQRHYVFFFS [PTEN_Y174_R173H_YF]", "Met"),
    ("WIPIQCPIISE [NOG_Y222_Y222C]", "Met"),
    ("QGIIIYKAAFF [SLC25A4_Y187_R188K_YF]", "Not met"),
    ("EEQKKYYNAMK [SCN5A_Y1494]", "Not met"),
    ("EKKKYYDAKIE [CASP5_Y104_T106A]", "Not met"),
    ("LKGQVYILGLE [ASS1_Y359_R363L]", "Met"),
    ("GRPLFYWLTGC [LYZL6_Y140]", "Not met"),
    ("RRNEEYCLLAS [ITK_Y198_D202A]", "Met"),
    ("SKNYTYIWWLN [PSG4_Y271]", "Not met"),
    ("EHFSFYGMKAV [SLC15A2_Y61_R57H_YF]", "Not met"),
    ("ATATDYHTTSH [SLC4A1_Y46]", "Not met"),
    ("NHYKIYNPCAE [PTEN_Y68_L70P]", "Not met"),
    ("PKEEPYQMQEK [SLC5A3_Y565]", "Met"),
    ("MGGSVYFSFPD [HIKESHI_Y55_YF]", "Met"),
    ("AEVDTYCRHNF [HLA-DRB1_Y107_A103E_YF]", "Not met"),
    ("VHNLDYFKMTT [FGFR3_Y647_K650M_YF]", "Met"),
    ("LFMGDYVGRGY [PPP2CA_Y86_D88G]", "Met"),
    ("LSVEIYDRREF [ITGB7_Y753_YF]", "Not met"),
    ("CSSGGYEPRGR [FUS_Y239_R234C]", "Not met"),
    ("RGGWAYVLHPT [TRMT61A_Y67_V66A]", "Not met"),
    ("ITRDEYPSNPM [CEMIP2_Y1015]", "Not met"),
    ("GIVEDYRPPLY [ACVRL1_Y421_F425L]", "Not met"),
    ("LAGRYYALRSM [CKB_Y174_K177R]", "Not met"),
    ("QYKDKYLAKHN [CASK_Y712]", "Not met"),
    ("QRAADYFSQQM [GBP6_Y333_YF]", "Not met"),
    ("KVDKECEVRVR [GHR_Y226_Y226C]", "Not met"),
    ("RAMRRYLERGE [ERBB3_Y680]", "Not met"),
]

---

biological target: EPHB2 (UniProt P29323); assay: phosphorylation enrichment, bacterial display (enrichment ratio); higher = better substrate or ligand; peptides without Tyr show the background
Sequence (P29323 whole entry, looked up): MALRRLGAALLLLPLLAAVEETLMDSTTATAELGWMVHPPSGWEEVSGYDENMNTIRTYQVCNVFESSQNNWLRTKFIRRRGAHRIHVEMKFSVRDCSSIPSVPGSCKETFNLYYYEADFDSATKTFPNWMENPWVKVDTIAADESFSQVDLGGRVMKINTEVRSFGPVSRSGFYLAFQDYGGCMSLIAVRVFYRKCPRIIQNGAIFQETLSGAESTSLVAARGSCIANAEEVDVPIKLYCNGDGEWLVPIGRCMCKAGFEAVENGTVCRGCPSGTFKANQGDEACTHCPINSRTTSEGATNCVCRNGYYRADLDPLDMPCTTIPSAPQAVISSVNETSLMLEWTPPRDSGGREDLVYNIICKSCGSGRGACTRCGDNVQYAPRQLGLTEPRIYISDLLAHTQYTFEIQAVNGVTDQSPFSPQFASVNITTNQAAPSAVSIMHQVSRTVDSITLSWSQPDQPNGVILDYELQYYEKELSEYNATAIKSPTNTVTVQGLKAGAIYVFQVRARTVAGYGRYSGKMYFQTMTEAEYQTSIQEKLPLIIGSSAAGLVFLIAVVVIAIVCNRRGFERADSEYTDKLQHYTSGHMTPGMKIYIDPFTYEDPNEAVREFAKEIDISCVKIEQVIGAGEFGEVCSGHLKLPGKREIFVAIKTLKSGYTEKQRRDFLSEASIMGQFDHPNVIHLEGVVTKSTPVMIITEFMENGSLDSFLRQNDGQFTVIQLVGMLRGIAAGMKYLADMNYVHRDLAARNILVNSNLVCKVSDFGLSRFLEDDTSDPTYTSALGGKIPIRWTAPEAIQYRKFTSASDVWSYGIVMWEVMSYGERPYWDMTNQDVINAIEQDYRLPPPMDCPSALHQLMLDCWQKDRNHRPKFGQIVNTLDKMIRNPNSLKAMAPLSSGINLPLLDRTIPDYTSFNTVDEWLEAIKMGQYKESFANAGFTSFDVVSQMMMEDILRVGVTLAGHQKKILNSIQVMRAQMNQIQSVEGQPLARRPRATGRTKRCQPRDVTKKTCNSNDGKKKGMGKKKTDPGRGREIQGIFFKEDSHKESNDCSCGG
The sequences listed here are annotated with their phosphorylation enrichment.

# seq text, tested target, phosphorylation enrichment
data = [
    ("ERDFTYDELLN [EIF2S2_Y176_E177D_YF]", "EPHB2 (UniProt P29323)", 0.598),
    ("SSPQPYLVPFL [TAF4_Y652]", "EPHB2 (UniProt P29323)", 0.867),
    ("TRSYDYTEGGD [FGF7_Y58_M59T]", "EPHB2 (UniProt P29323)", 0.465),
    ("FFDANYDGKEF [MAPRE2_Y162_YF]", "EPHB2 (UniProt P29323)", 0.666),
    ("PSQRHYVYYYS [PTEN_Y174_R173H]", "EPHB2 (UniProt P29323)", 0.953),
    ("RAMRRYLERGE [ERBB3_Y680]", "EPHB2 (UniProt P29323)", 0.563),
    ("TISPYYCQSLF [CRYAA_Y48_R49C]", "EPHB2 (UniProt P29323)", 0.543),
    ("PKFHSYVSLPF [PLXNA2_Y293]", "EPHB2 (UniProt P29323)", 1.01),
    ("VFAPDYIAGVS [NOB1_Y366]", "EPHB2 (UniProt P29323)", 0.646),
]
